This section presents compounds with their documented pIC50 values.
Target: Human complement C1s enzyme (Homo sapiens, UniProt P09871)
Sequence (P09871 438-688 limits assumed): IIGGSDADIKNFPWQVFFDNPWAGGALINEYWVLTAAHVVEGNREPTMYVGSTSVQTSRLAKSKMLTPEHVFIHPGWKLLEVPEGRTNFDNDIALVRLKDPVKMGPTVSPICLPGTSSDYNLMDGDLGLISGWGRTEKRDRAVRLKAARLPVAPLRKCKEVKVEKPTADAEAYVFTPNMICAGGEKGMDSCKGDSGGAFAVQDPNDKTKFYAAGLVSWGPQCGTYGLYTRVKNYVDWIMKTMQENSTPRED
Sequence (P09871 16-437 partner limits assumed): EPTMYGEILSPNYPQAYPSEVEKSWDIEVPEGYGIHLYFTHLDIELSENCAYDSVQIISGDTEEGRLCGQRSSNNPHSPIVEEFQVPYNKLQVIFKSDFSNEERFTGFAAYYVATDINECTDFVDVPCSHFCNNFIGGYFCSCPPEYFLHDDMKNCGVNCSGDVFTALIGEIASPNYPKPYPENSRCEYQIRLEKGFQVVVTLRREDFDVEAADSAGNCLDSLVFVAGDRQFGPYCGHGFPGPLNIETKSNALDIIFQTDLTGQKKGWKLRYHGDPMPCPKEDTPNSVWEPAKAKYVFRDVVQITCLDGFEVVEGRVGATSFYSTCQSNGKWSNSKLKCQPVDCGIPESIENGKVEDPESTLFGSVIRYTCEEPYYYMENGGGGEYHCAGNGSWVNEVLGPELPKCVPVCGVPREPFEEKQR
Assay: Human C1s enzyme assay
Format: biochemical
Details: human complement C1s enzyme 1.16 nM, substrate Z-L-Lys-SBzl 100 μM, 5 min preincubation; read-out: IC50 (Stars), C1s Inhibiting Activity
pIC50: −log10 of the molar value.

Would you please look over these solved cases?
C[C@@H](NC(=O)[C@@H]1C[C@]2(C)C[C@@H]2N1C(=O)CNC(=O)c1ccc2c(c1)Oc1ccccc1S2)c1cc2cnccc2s1 [Compound 231]	> 7.00
O=C(NCC(=O)N1C[C@H](OC(F)F)C[C@H]1C(=O)NCc1cc2cnccc2[nH]1)c1cccc(Oc2ccsc2)c1 [Compound 303]	> 7.00
O=C(NCC(=O)N1CC2(C[C@H]1C(=O)NCc1cc3cnccc3o1)OCCO2)c1ccc2c(c1)Oc1ccccc1S2 [Compound 50]	6.00 to 7.00
O=C(NCC(=O)N1C[C@H](OC(F)F)C[C@H]1C(=O)NCc1cc2cnccc2[nH]1)c1ccc2oc3ccccc3c2c1 [Compound 218]	> 7.00
Cc1ccc(Oc2ccc(F)c(C(=O)NCC(=O)N3C[C@H](OC(F)F)C[C@H]3C(=O)NCc3cc4cnccc4[nH]3)c2)c(F)c1 [Compound 322]	> 7.00

Q. Recorded pIC50 for C[C@@H](NC(=O)[C@@H]1C[C@@H](S(C)(=O)=O)CN1C(=O)CNC(=O)c1ccc(Oc2ccc(F)cc2)cc1)c1cc2cnccc2[nH]1 [Compound 87] , please?
A. 6.00 to 7.00

Q. Recorded pIC50 for O=C(NCC(=O)N1C[C@@](F)(CF)C[C@H]1C(=O)NCc1cc2cnccc2[nH]1)c1ccc2oc3ccccc3c2c1 [Compound 187] , please?
A. > 7.00

Q. Recorded pIC50 for Cc1cccc(-c2nc(C)cc(C(=O)NCC(=O)N3CC4(C[C@H]3C(=O)NCc3cc5cnccc5[nH]3)OCCO4)c2C)c1 [Compound 306] , please?
A. > 7.00

Q. Recorded pIC50 for Cn1c(C2(NC(=O)[C@@H]3C[C@]4(C)C[C@@H]4N3C(=O)CNC(=O)CCCOc3ccccc3)CC2)nc2ccncc21 [Compound 65] , please?
A. < 6.00

Q. Recorded pIC50 for C[C@@]12C[C@@H]1N(C(=O)CNC(=O)c1ccc3c(c1)Oc1ccccc1S3)[C@H](C(=O)NCc1ccc(B(O)O)cc1)C2 [Compound 263] , please?
A. < 6.00

Q. Recorded pIC50 for O=C(NCc1cc2cnccc2[nH]1)[C@@H]1CC2(CN1C(=O)CN1Cc3cc(-c4ccc(F)cc4F)ccc3C1=O)OCCO2 [Compound 120] , please?
A. > 7.00

Q. Recorded pIC50 for O=C(NCC(=O)N1CC2(C[C@H]1C(=O)NCc1cc3cc(Cl)ccc3[nH]1)OCCO2)c1ccc2c(c1)Oc1ccccc1S2 [Compound 19] , please?
A. < 6.00

Q. Recorded pIC50 for C[C@H](NC(=O)[C@@H]1CC2(CN1C(=O)CNC(=O)c1ccc3c(c1)-c1ccccc1C3(F)F)OCCO2)c1cc2cnccc2[nH]1 [Compound 23] , please?
A. < 6.00

Q. Recorded pIC50 for O=C(NCC(=O)N1C[C@H](OC(F)F)C[C@H]1C(=O)NCc1cc2cnccc2[nH]1)c1cc2c(cc1F)Sc1ccccc1O2 [Compound 355] , please?
A. > 7.00

Q. Recorded pIC50 for Cn1c(CNC(=O)[C@@H]2CC3(CN2C(=O)CNC(=O)c2ccc4c(c2)Oc2ccccc2S4)OCCO3)cc2cnccc21 [Compound 46] , please?
A. < 6.00

Q. Recorded pIC50 for COc1ccc(C(=O)NCC(=O)N2C[C@H](OC(F)F)C[C@H]2C(=O)NCc2cc3cnccc3[nH]2)cc1 [Compound 384] , please?
A. < 6.00

Q. Recorded pIC50 for C[C@@H](NC(=O)[C@@H]1C[C@@H](S(C)(=O)=O)CN1C(=O)CNC(=O)c1ccc2c(c1)-c1ccccc1C2(F)F)c1cc2cnccc2[nH]1 [Compound 72] , please?
A. > 7.00

Q. Recorded pIC50 for CC(C)S(=O)(=O)[C@@H]1C[C@@H](C(=O)N[C@H](C)c2cc3cnccc3[nH]2)N(C(=O)CNC(=O)c2ccc3c(c2)Oc2ccccc2S3)C1 [Compound 133] , please?
A. > 7.00

Q. Recorded pIC50 for O=C(NCC(=O)N1CC[C@H](c2ccccc2)[C@H]1C(=O)NCc1cc2cnccc2[nH]1)c1ccc2c(c1)Oc1ccccc1S2 [Compound 214] , please?
A. < 6.00

Q. Recorded pIC50 for Cc1ccc(Oc2cccc(C(=O)NCC(=O)N3C[C@H](OC(F)F)C[C@H]3C(=O)Nc3cc4cnccc4s3)c2F)cc1 [Compound 376] , please?
A. < 6.00

Q. Recorded pIC50 for C[C@@]12C[C@@H]1N(C(=O)CNC(=O)c1ccc3c(c1)Oc1ccccc1S3)[C@H](C(=O)NCc1cc3c(s1)CNCC3)C2 [Compound 112] , please?
A. > 7.00

Attribution: patent US20260062443A1
